Target: Beta-secretase 1 (Homo sapiens, UniProt P56817)
Sequence (P56817 whole entry): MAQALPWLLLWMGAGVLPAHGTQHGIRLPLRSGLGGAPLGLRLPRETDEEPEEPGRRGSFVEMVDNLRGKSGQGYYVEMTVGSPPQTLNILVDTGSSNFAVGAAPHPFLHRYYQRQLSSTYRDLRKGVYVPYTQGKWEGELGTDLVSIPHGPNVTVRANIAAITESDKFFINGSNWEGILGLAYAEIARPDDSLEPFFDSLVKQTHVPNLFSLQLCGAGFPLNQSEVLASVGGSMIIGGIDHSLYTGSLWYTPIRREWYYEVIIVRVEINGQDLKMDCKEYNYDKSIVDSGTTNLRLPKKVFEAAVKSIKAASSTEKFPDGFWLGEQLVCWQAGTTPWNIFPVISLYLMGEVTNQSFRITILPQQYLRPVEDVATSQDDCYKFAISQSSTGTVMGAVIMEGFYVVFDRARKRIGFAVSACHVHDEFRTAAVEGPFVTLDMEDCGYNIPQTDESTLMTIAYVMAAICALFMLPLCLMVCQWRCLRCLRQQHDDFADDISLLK
Settings: CHO
readout label: ED50 (µM)

>  <test smiles>
CCCOc1ccc(-c2ccc(-c3ccccc3Cl)n2CC(=O)/N=C(/N)NCC(C)(C)CO)cc1

>  <value>
5.27

$$$$
>  <test smiles>
CCCOc1ccc(-c2ccc(-c3ccccc3Cl)n2CC(=O)/N=C(/N)N[C@H]2CC[C@H](O)CC2)cc1

>  <value>
1.28

$$$$
>  <test smiles>
N/C(=N/C(=O)Cn1c(-c2ccccc2)ccc1C12CC3CC(CC(C3)C1)C2)N[C@H]1CC[C@H](O)CC1

>  <value>
1.44

$$$$
>  <test smiles>
CCCOc1ccc(-c2ccc(-c3ccccc3Cl)n2CC(=O)/N=C(/N)NCCCn2ccnc2)cc1

>  <value>
3.1

$$$$
>  <test smiles>
CCCOc1ccc(-c2ccc(-c3ccccc3Cl)n2CC(=O)/N=C(/N)NCc2ccco2)cc1

>  <value>
9.1

$$$$
>  <test smiles>
CCCOc1ccc(-c2ccc(-c3ccccc3Cl)n2CC(=O)/N=C(/N)NCCC2OCCO2)cc1

>  <value>
1.34

$$$$
>  <test smiles>
N/C(=N/C(=O)Cn1c(-c2ccccc2)ccc1C12CC3CC(CC(C3)C1)C2)NCCCn1ccnc1

>  <value>
9.16

$$$$
>  <test smiles>
CCCOc1ccc(-c2ccc(-c3ccccc3Cl)n2CC(=O)/N=C(/N)NCc2cccs2)cc1

>  <value>
10.7

$$$$
>  <test smiles>
C[C@@H](O)CN/C(N)=N\C(=O)Cn1c(-c2ccccc2)ccc1C12CC3CC(CC(C3)C1)C2

>  <value>
9.51

$$$$
>  <test smiles>
NC(N)=NC(=O)Cn1c(-c2ccccc2)ccc1C12CC3CC(CC(C3)C1)C2

>  <value>
8.9

$$$$
>  <test smiles>
N#CCCCN/C(N)=N\C(=O)Cn1c(-c2ccccc2)ccc1C12CC3CC(CC(C3)C1)C2

>  <value>
4.4

$$$$
>  <test smiles>
CCCOc1ccc(-c2ccc(-c3ccccc3Cl)n2CC(=O)/N=C(/N)NCc2ccc(F)c(F)c2F)cc1

>  <value>
5.27

$$$$
